target: MAGE-A1 target antigen peptide … presented by HLA-A*02:01 on cells (human); experiment: cell-based or functional assay; set-up: unit not given beside the values
Collected EC50 Enhancement Factor values appear next to each entry.
Answer field: number only, no words.

Solved cases below.
# Binder, EC50 Enhancement Factor
data = [
    ("ht27M1398 (TCR, V domains shown) Valpha: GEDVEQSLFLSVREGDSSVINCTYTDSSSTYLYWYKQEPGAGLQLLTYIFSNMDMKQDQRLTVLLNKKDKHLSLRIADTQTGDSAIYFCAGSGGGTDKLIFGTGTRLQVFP Vbeta: GAVVSQHPSWVICKSGTSVKIECRSLDFQATTMFWYRQFPKQSLMLMATTNLPSKATYEQGVEKDKFLINHASLTLSTLTVTSAHPEDSSFYICSAREPGQGPYEQYFGPGTRLTVT", 316),
    ("ht27M1363 (TCR, V domains shown) Valpha: GEDVEQSLFLSVREGDSSVINCTYTDSSSTYLYWYKQEPGAGLQLLTYIFNTQDMKQDQRLTVLLNKKDKHLSLRIADTQTGDSAIYFCAGSGGGTDKLIFGTGTRLQVFP Vbeta: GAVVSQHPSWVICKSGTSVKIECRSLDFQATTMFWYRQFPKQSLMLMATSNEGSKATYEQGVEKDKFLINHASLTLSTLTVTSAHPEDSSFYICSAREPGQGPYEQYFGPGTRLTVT", 261),
]

Then this binder:
Q: So what does the record say about EC50 Enhancement Factor for ht27M1011 (TCR, V domains shown) Valpha: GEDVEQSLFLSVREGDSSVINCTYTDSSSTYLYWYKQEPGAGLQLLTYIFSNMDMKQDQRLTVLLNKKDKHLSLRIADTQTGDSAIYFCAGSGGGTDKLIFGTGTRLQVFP Vbeta: GAVVSQHPSWVICKSGTSVKIECRSLDFQATTMFWYRQFPKQSLMLMATSDYQTCVTYEQGVEKDKFLINHASLTLSTLTVTSAHPEDSSFYICSAREPGQGPWEQYFGPGTRLTVT ?
A: 2020
